These measurements were taken from patent US20240287076A1.

TARGET OR TEST SYSTEM: BTK (Homo sapiens)
Construct: The GM01501.3 cell line endogenously expresses BTK with a HiBiT fusion tag via CRISPR knock-in at its C-terminal region; endogenous in cells; host or cells: GM01501.3 (GM01501 cells engineered by CRISPR knock-in of HiBiT at the BTK locus)
EXPERIMENT NOTES: BTK degradation assay using the HiBiT Method (Nano-Glo HiBiT Lytic Assay, GM01501.3 cells)
Format: cell-based
PROTOCOL CONDITIONS: HiBiT Degradation on GM01501.3 BTK @ 6 hours
Answer each item with its documented DC50.

Query block: Which DC50 is listed for Cc1cc(-c2ncnn3cc(CCN4CCC(c5ccc6c(C7CCC(=O)NC7=O)nn(C)c6c5)CC4)cc23)ccc1CNC(=O)c1noc(C(C)(C)C)n1 (stereo not drawn) ?
Result block: < 100 nM

Query block: Which DC50 is listed for Cc1cc(-c2ncnn3cc(CCCCN4CC(c5ccc(NC6CCC(=O)NC6=O)cc5)C4)cc23)ccc1CNC(=O)c1noc(C(C)(C)C)n1 (stereo not drawn) ?
Result block: 100 to 500 nM

Query block: Which DC50 is listed for Cc1cc(-c2ncnn3cc(-c4ccc(CN5CCC(c6ccc(NC7CCC(=O)NC7=O)cc6)CC5)cc4)cc23)ccc1CNC(=O)c1ccc(C(F)(F)F)cc1 (stereo not drawn) ?
Result block: < 100 nM

* * *

Answer each item with its documented DC50.
TARGET OR TEST SYSTEM: BTK (Homo sapiens, UniProt Q06187)
Construct: The GM01501.3 cell line endogenously expresses BTK with a HiBiT fusion tag via CRISPR knock-in at its C-terminal region; endogenous in cells; host or cells: GM01501.3 (GM01501 cells engineered by CRISPR knock-in of HiBiT at the BTK locus)
Sequence (Q06187 whole entry, the tested form may be a part): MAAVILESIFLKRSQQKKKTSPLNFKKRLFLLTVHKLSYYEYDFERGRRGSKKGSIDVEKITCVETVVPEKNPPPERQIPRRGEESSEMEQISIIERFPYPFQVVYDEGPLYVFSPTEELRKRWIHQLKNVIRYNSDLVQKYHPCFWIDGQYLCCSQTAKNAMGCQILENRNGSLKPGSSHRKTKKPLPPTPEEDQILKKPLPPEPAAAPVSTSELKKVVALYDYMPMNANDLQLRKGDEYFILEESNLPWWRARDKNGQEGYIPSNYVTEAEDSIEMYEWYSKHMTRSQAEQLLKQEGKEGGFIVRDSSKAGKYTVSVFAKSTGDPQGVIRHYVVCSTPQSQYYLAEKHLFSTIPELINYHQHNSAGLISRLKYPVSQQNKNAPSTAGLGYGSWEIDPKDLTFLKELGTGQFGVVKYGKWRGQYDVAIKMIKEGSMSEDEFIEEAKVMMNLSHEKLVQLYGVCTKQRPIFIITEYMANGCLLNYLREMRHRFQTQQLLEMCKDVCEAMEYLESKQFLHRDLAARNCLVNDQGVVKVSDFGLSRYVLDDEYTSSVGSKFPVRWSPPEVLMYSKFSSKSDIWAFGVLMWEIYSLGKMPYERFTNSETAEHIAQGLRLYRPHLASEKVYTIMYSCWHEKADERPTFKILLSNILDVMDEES
EXPERIMENT NOTES: BTK degradation assay using the HiBiT Method (Nano-Glo HiBiT Lytic Assay, GM01501.3 cells)
Assay type: cell-based
PROTOCOL CONDITIONS: HiBiT Degradation on GM01501.3 BTK @ 6 hours

Query block: Which DC50 is listed for COc1cc(-c2cc3c(-c4ccc(CNC(=O)c5noc(C(C)(C)C)n5)c(C)c4)ncnn3c2)ccc1CN1CCC(c2ccc(NC3CCC(=O)NC3=O)cc2)CC1 (stereo not drawn) ?
Result block: < 100 nM

Query block: Which DC50 is listed for Cc1cc(-c2ncnn3cc(CCN4CCC(c5ccc6c(C7CCC(=O)NC7=O)nn(C)c6c5)CC4)cc23)ccc1CNC(=O)c1ccn(C(C)(C)C)n1 (stereo not drawn) ?
Result block: < 100 nM

Query block: Which DC50 is listed for Cc1cc(-c2ncnn3cc(CCCCN4CCC(c5ccc6c(N7CCC(=O)NC7=O)nn(C)c6c5F)CC4)cc23)ccc1CNC(=O)c1noc(C(C)(C)C)n1 ?
Result block: < 100 nM

Query block: Which DC50 is listed for Cc1cc(-c2ncnn3cc(-c4cccc(CN5CCC(c6ccc(C7CCC(=O)NC7=O)cc6)CC5)n4)cc23)ccc1CNC(=O)c1noc(C(C)(C)C)n1 (stereo not drawn) ?
Result block: < 100 nM

Query block: Which DC50 is listed for Cc1cc(-c2ncnn3cc(CCC[C@H](F)CN4CCC(c5ccc(C6CCC(=O)NC6=O)cc5)CC4)cc23)ccc1CNC(=O)c1noc(C(C)(C)C)n1 (stereo partly drawn) ?
Result block: < 100 nM

Query block: Which DC50 is listed for CC(C)(C)OC1CN(C(=O)NCc2ccc(-c3ncnn4cc(-c5ccc(CN6CCC(c7ccc(NC8CCC(=O)NC8=O)cc7)CC6)c(F)c5)cc34)cc2F)C1 (stereo not drawn) ?
Result block: < 100 nM

Query block: Which DC50 is listed for Cc1cc(-c2ncnn3cc(C4CC4CN4CCC(c5ccc(NC6CCC(=O)NC6=O)cc5)CC4)cc23)ccc1CNC(=O)c1noc(C(C)(C)C)n1 (stereo not drawn) ?
Result block: < 100 nM

Query block: Which DC50 is listed for Cc1cc(-c2ncnn3cc(CCN4CCC(c5ccc(OC6CCC(=O)NC6=O)cn5)CC4)cc23)ccc1CNC(=O)c1noc(C(C)(C)C)n1 (stereo not drawn) ?
Result block: < 100 nM

Query block: Which DC50 is listed for Cc1cc(-c2ncnn3cc(-c4ccc(CN5CCC(c6ccc(NC7CCC(=O)NC7=O)cc6)CC5)cc4)cc23)ccc1CNC(=O)c1ccc(C(F)F)cn1 (stereo not drawn) ?
Result block: < 100 nM

Query block: Which DC50 is listed for Cn1nc(N2CCC(=O)NC2=O)c2ccc(C3CCN(CCOc4ccc(-c5cc6c(-c7ccc(CNC(=O)c8noc(C(C)(C)C)n8)c(F)c7)ncnn6c5)cc4)CC3)cc21 ?
Result block: < 100 nM

Query block: Which DC50 is listed for CC(C)(C)c1nc(C(=O)NCc2ccc(-c3ncnn4cc(CCC(F)(F)CN5CCC(c6ccc(C7CCC(=O)NC7=O)cc6)CC5)cc34)cc2F)no1 (stereo not drawn) ?
Result block: 100 to 500 nM

Query block: Which DC50 is listed for Cc1cc(-c2ncnn3cc(N4CCN(C(=O)c5cn(CCNC(=O)c6ccc(OC7CCC(=O)NC7=O)cc6)nn5)CC4)cc23)ccc1CNC(=O)c1noc(C(C)(C)C)n1 (stereo not drawn) ?
Result block: > 1000 nM

* * *

TARGET OR TEST SYSTEM: BTK (Homo sapiens, UniProt Q06187)
Construct: The GM01501.3 cell line endogenously expresses BTK with a HiBiT fusion tag via CRISPR knock-in at its C-terminal region; endogenous in cells; host or cells: GM01501.3 (GM01501 cells engineered by CRISPR knock-in of HiBiT at the BTK locus)
EXPERIMENT NOTES: BTK degradation assay using the HiBiT Method (Nano-Glo HiBiT Lytic Assay, GM01501.3 cells)
Type: cell-based
PROTOCOL CONDITIONS: HiBiT Degradation on GM01501.3 BTK @ 6 hours
RESULT TYPE: DC50

Query block: Which DC50 is listed for Cc1cc(-c2ncnn3cc(CCCCN4CCC(c5ccc(C6CCC(=O)NC6=O)cc5)CC4)cc23)ccc1CNC(=O)c1noc(C(C)(C)C)n1 (stereo not shown) ?
Result block: < 0.1 µM

Query block: Which DC50 is listed for Cc1cc(-c2ncnn3cc(-c4ccc(CN5CCC(c6ccc(NC7CCC(=O)NC7=O)cc6)CC5)cc4)cc23)ccc1CNC(=O)c1ccc(C(C)(C)C)cc1 (stereo not shown) ?
Result block: < 0.1 µM

Query block: Which DC50 is listed for Cc1cc(-c2ncnn3cc(-c4ccc(CN5CCC(c6ccc(NC7CCC(=O)NC7=O)cc6)CC5)c(F)c4)cc23)ccc1CNC(=O)c1noc(C(C)(C)C)n1 (stereo not shown) ?
Result block: < 0.1 µM

Query block: Which DC50 is listed for Cc1cc(-c2ncnn3cc(-c4ccc(CN5CCC(c6ccc(NC7CCC(=O)NC7=O)cc6C(F)(F)F)CC5)cc4)cc23)ccc1CNC(=O)c1noc(C(C)(C)C)n1 (stereo not shown) ?
Result block: < 0.1 µM

Query block: Which DC50 is listed for Cc1cc(-c2ccnc3sc(-c4ccc(CN5CCC(c6ccc(NC7CCC(=O)NC7=O)cc6)CC5)cc4)cc23)ccc1CNC(=O)c1noc(C(C)(C)C)n1 (stereo not shown) ?
Result block: 0.1 to 0.5 µM

Query block: Which DC50 is listed for Cc1cc(-c2ncnn3cc(OC4CC(CN5CCC(c6ccc7c(N8CCC(=O)NC8=O)nn(C)c7c6)CC5)C4)cc23)ccc1CNC(=O)c1noc(C(C)(C)C)n1 (stereo not shown) ?
Result block: < 0.1 µM

Query block: Which DC50 is listed for Cc1cc(-c2ncnn3cc(-c4ccc5c(c4)CN(CCCc4ccc(NC6CCC(=O)NC6=O)cc4)C5)cc23)ccc1CNC(=O)c1noc(C(C)(C)C)n1 (stereo not shown) ?
Result block: < 0.1 µM

Query block: Which DC50 is listed for Cc1cc(-c2ncnn3cc(-c4ccc(CN5CCC(c6ccc(NC7CCC(=O)NC7=O)nn6)CC5)cc4)cc23)ccc1CNC(=O)c1noc(C(C)(C)C)n1 (stereo not shown) ?
Result block: < 0.1 µM

Query block: Which DC50 is listed for Cc1cc(-c2ncnn3cc(-c4ccc(CN5CCC(c6cnc(NC7CCC(=O)NC7=O)cn6)CC5)cc4)cc23)ccc1CNC(=O)c1noc(C(C)(C)C)n1 (stereo not shown) ?
Result block: < 0.1 µM

Query block: Which DC50 is listed for Cc1cc(-c2ncnn3cc(-c4ccc(C(=O)Nc5cccc6c5CCN(C5CCC(=O)NC5=O)C6)cc4)cc23)ccc1CNC(=O)c1noc(C(C)(C)C)n1 (stereo not shown) ?
Result block: < 0.1 µM

Query block: Which DC50 is listed for Cc1cc(-c2ncnn3cc(-c4ccc(C(=O)NCCc5ccc(NC6CCC(=O)NC6=O)cc5)cc4)cc23)ccc1CNC(=O)c1noc(C(C)(C)C)n1 (stereo not shown) ?
Result block: < 0.1 µM

Query block: Which DC50 is listed for Cc1cc(-c2ncnn3cc(-c4cccc(CN5CCC(c6ccc7c(N8CCC(=O)NC8=O)nn(C)c7c6)CC5)n4)cc23)ccc1CNC(=O)c1noc(C(C)(C)C)n1 ?
Result block: < 0.1 µM

Query block: Which DC50 is listed for Cc1cc(-c2ncnn3cc(N4CCN(C(=O)c5ccccc5CNC(=O)c5ccc(OC6CCC(=O)NC6=O)cc5)CC4)cc23)ccc1CNC(=O)c1noc(C(C)(C)C)n1 (stereo not shown) ?
Result block: < 0.1 µM

Query block: Which DC50 is listed for Cc1c(NC(=O)c2cc3c(s2)CCCC3)cc(F)cc1-c1ncnn2cc(-c3ccc(CN4CCC(c5ccc(NC6CCC(=O)NC6=O)cc5)CC4)cc3)cc12 (stereo not shown) ?
Result block: < 0.1 µM

Query block: Which DC50 is listed for CC(C)(C)c1nc(C(=O)NCc2ccc(-c3ncnn4cc(CCCCN5CCC(n6ccc(NC7CCC(=O)NC7=O)n6)CC5)cc34)cc2F)no1 (stereo not shown) ?
Result block: < 0.1 µM

Query block: Which DC50 is listed for Cc1cc(-c2ncnn3cc(-c4ccc(CN5CCC(c6ccc(NC7CCC(=O)NC7=O)cc6)CC5)cc4)cc23)ccc1CNC(=O)c1noc(C(C)(C)C)n1 (single isomer, unassigned; isomer 2) [Example 3] ?
Result block: < 0.1 µM

Query block: Which DC50 is listed for Cc1cc(-c2ncnn3cc(OCCN4CCC(c5ccc(NC6CCC(=O)NC6=O)cc5)CC4)cc23)ccc1CNC(=O)c1noc(C(C)(C)C)n1 (stereo not shown) ?
Result block: < 0.1 µM

Query block: Which DC50 is listed for COc1cc(-c2ncnn3cc(-c4ccc(CN5CCC(c6ccc(NC7CCC(=O)NC7=O)cc6)CC5)cc4)cc23)ccc1CNC(=O)c1noc(C(C)(C)C)n1 (stereo not shown) ?
Result block: < 0.1 µM

Query block: Which DC50 is listed for Cc1cc(-c2ccnc3cn(-c4ccc(CN5CCC(c6ccc(NC7CCC(=O)NC7=O)cc6)CC5)cc4)nc23)ccc1CNC(=O)c1noc(C(C)(C)C)n1 (stereo not shown) ?
Result block: < 0.1 µM

Query block: Which DC50 is listed for Cc1cc(-c2ncnn3cc(CCN4CCC(c5ccc6c(N7CCC(=O)NC7=O)nn(C)c6c5)CC4)cc23)ccc1CNC(=O)c1noc(C2(C)CCC2)n1 ?
Result block: < 0.1 µM

Query block: Which DC50 is listed for CC(C)(C)c1nc(C(=O)NCc2ccc(-c3ncnn4cc(CCN5CCC(c6ccc(NC7CCC(=O)NC7=O)cc6)CC5)cc34)cc2F)no1 (stereo not shown) ?
Result block: < 0.1 µM

Query block: Which DC50 is listed for Cc1cc(-c2ncnn3cc(N4CCN(C(=O)C5CC6(CCN(C(=O)c7ccc(OC8CCC(=O)NC8=O)cc7)C6)C5)CC4)cc23)ccc1CNC(=O)c1noc(C(C)(C)C)n1 (stereo not shown) ?
Result block: < 0.1 µM
